# assay.remarks: In vitro BBB permeability study (Papp), double co-culture with SH-SY5Y cells (h+S)
# Assay type: in vitro ADME, Homo sapiens
# applied.conditions: human, group h+S, Figure 1D/1E; single biological replicate; read-out: Papp

molecule: O=C1OC2(c3ccc(O)cc3Oc3cc(O)ccc32)c2ccccc21 [fluorescein, fluorescein sodium]
Papp A→B at 30 min (×10⁻⁶ cm/s): 29.4

---

# assay.remarks: in vitro
# applied.conditions: human, Papp Mean, Mono-culture BBB Model; mean of 4 replicates
attribute.measured: Papp A→B (×10⁻⁶ cm/s)

chem.smiles: NCC1(CC(=O)O)CCCCC1
attribute.measured: Papp A→B
readout.value: 16.7
